Data provenance: ChEMBL document CHEMBL3853295

Assay: Cytotoxicity against human SH-SY5Y cells after 72 hrs by MTT assay
Type: functional, cell-based
Endpoint Name: pIC50
The meaning of pIC50 here: minus log10 of the concentration in molar units.

>  <Line Notation>
CN1CCN(Cc2cc(Nc3cccc(N(CCCl)CCCl)c3)n3ncc(C#N)c3n2)CC1

>  <pIC50>
4.82

$$$$
>  <Line Notation>
N#Cc1cnn2c(Nc3ccc(N(CCCl)CCCl)cc3)cc(CN3CCCC3)nc12

>  <pIC50>
5.04

$$$$
>  <Line Notation>
N#Cc1cnn2c(Nc3ccc(N(CCCl)CCCl)cc3)cc(CN3CCC(CO)CC3)nc12

>  <pIC50>
4.94

$$$$
>  <Line Notation>
N#Cc1cnn2c(Nc3ccc(N(CCCl)CCCl)cc3)cc(CN3CCOCC3)nc12

>  <pIC50>
5.17

$$$$
>  <Line Notation>
CCN1CCN(Cc2cc(Nc3cccc(N(CCCl)CCCl)c3)n3ncc(C#N)c3n2)CC1

>  <pIC50>
4.64

$$$$

q: Please indicate pIC50 recorded for "CC1CCN(Cc2cc(Nc3ccc(N(CCCl)CCCl)cc3)n3ncc(C#N)c3n2)CC1"
a: 4.72
